- System: Staphylococcus aureus
- Protocol notes: Antibacterial activity against Staphylococcus aureus by serial dilution method
- Assay type: functional
Measured endpoint: MIC (µg/mL)
Please reply with the bare figure in µg/mL and do not write the unit itself.

Example results:
Compound | Study system | MIC [µg/mL]
c1cc(-c2nnc3sc(-c4ccncc4)nn23)nc(-c2nnc3sc(-c4ccncc4)nn23)c1 | Staphylococcus aureus | 128
COc1ccc(-c2nn3c(-c4cccc(-c5nnc6sc(-c7ccc(OC)cc7)nn56)n4)nnc3s2)cc1 | Staphylococcus aureus | 64
Cc1ccc(-c2nn3c(-c4cccc(-c5nnc6sc(-c7ccc(C)cc7)nn56)n4)nnc3s2)cc1 | Staphylococcus aureus | 128
c1cc(-c2nnc3sc(-c4ccco4)nn23)nc(-c2nnc3sc(-c4ccco4)nn23)c1 | Staphylococcus aureus | 64
CC1(C)S[C@@H]2[C@H](NC(=O)[C@H](N)c3ccccc3)C(=O)N2[C@H]1C(=O)[O-].[Na+] [AMPICILLIN SODIUM] | Staphylococcus aureus | 1

Note to self: MIC recorded for O=[N+]([O-])c1cccc(-c2nn3c(-c4cccc(-c5nnc6sc(-c7cccc([N+](=O)[O-])c7)nn56)n4)nnc3s2)c1 was 128

Recorded MIC (compound Cc1nn2c(-c3cccc(-c4nnc5sc(C)nn45)n3)nnc2s1 ): 128

Looking up Ic1cccc(-c2nn3c(-c4cccc(-c5nnc6sc(-c7cccc(I)c7)nn56)n4)nnc3s2)c1 , I found its MIC recorded as 32

Record Clc1cccc(-c2nn3c(-c4cccc(-c5nnc6sc(-c7cccc(Cl)c7)nn56)n4)nnc3s2)c1 . Reported MIC: 64

For O=[N+]([O-])c1ccc(-c2nn3c(-c4cccc(-c5nnc6sc(-c7ccc([N+](=O)[O-])cc7)nn56)n4)nnc3s2)cc1 the compound record lists MIC as 128

Note to self: MIC recorded for c1ccc(-c2nn3c(-c4cccc(-c5nnc6sc(-c7ccccc7)nn56)n4)nnc3s2)cc1 was 128

Briefly, MIC measured for c1cncc(-c2nn3c(-c4cccc(-c5nnc6sc(-c7cccnc7)nn56)n4)nnc3s2)c1 : 128

Looking up Clc1ccc(-c2nn3c(-c4cccc(-c5nnc6sc(-c7ccc(Cl)cc7)nn56)n4)nnc3s2)cc1 , I found its MIC recorded as 32
